binders and their reported % maximum blocking
- MEASURED TARGET: T1, recombinant human PD-L1 (amino acids 19-239 of NP_054862.1) expressed with a C-terminal mouse IgG2a Fc tag (human)
- T1 construct: called dimeric; also called hPD-L1-mFc
- T1 sequence (chain, as listed by the source limits assumed): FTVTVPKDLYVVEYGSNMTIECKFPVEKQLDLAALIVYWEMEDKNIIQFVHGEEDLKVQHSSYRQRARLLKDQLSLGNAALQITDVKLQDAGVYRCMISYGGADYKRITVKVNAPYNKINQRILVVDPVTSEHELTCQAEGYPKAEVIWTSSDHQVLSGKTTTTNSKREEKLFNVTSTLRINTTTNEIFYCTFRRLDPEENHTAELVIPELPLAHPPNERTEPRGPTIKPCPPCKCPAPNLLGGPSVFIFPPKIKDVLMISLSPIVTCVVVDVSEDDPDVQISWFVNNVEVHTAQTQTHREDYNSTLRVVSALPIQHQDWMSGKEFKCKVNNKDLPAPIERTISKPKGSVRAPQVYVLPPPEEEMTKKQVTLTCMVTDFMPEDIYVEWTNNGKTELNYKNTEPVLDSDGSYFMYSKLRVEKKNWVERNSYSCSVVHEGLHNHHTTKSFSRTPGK
- MEASUREMENT PROTOCOL: competition ELISA: 8 nM hPD-L1-mFc binding to coated hB7-1-hFc-6His
VALUE TYPE: % maximum blocking (%)

>  <BINDER>
H2aM8310N (antibody, V domains shown, human variable regions, mouse IgG2 Fc (H2aM prefix); also called H2M8310N) VH: QVQLVQSGAEVKKPGASVQVSCKASGYSFTGYYIHWVRQAPGQGLEWMGWINPNSGTKKYAHKFQGRVTMTRDTSIDTAYMILSSLISDDTAVYYCARDEDWNFGSWFDSWGQGTLVTVSS VL: DIVMTQTPLSSPVTLGQPASISCRSSQTLVHGDGNTYLSWIQQRPGQPPRLLIYKVSNQFSGVPDRFSGSGAGTDFTLKISRVEAEDVGLYFCMQATHFPITFGQGTRLEIK

>  <MEASURED RESULT>
98

$$$$
>  <BINDER>
H2aM8321N (antibody, V domains shown, human variable regions, mouse IgG2 Fc (H2aM prefix); also called H2M8321N) VH: EERLVESGGDLVQPGGSLRLSCAASGITVGTNYMNWVRQAPGKGLEWVSVISSGGNTHYADSVKGRFIMSRQTSKNTLYLQMNSLETEDTAVYYCARGIRGLDVWGQGTMVTVSS VL: DIQMTQSPSSLSASVGDRVTITCRASQSMSSYLNWYQQKPGRAPKLLIFAASSLQSGVPSRFSGSGSGTDFTLTISSLQPEDFATYYCQQSYSTPPITFGQGTRLEIK

>  <MEASURED RESULT>
-124

$$$$
>  <BINDER>
H2aM8314N (antibody, V domains shown, human variable regions, mouse IgG2 Fc (H2aM prefix); also called H2M8314N) VH: EVQLVESGGGVVRPGGSLRLSCAASGFTFDDYGMTWVRQAPGRGLEWVSGIHWHGKRTGYADSVKGRFTISRDNAKKSLYLQMNSLKGEDTALYHCVRGGMSTGDWFDPWGQGTLVIVSS VL: DIQMTQSPSSLSASLGDRVTITCRASQSINSYLNWYQQKPGKAPKLLIYVASSLQSGVPSRFSGSGSGTEFTLTISNLQPEDFATYYCQQSYSTPPITFGQGTRLEIK

>  <MEASURED RESULT>
97

$$$$
>  <BINDER>
H2aM8317N (antibody, V domains shown, human variable regions, mouse IgG2 Fc (H2aM prefix); also called H2M8317N) VH: EVQLVESGGGLVQPGGSLRLSCAASGFTVGSNYMNWVRQAPGKGLEWVSVIYSGGSTYYADSVKGRFTISRLTSKNTLYLQMSSLRPEDTAVYYCARGIRGLDVWGQGTTVTVSS VL: DIQMTQSPSSLSASVGDRVTITCRASQTINIYLNWYQQKPGRAPRLLIYAASSLQSGVPSRFSGSGSGTDFTLTISSLQPEDFATYYCHQSYSTPPITFGQGTRLEIK

>  <MEASURED RESULT>
-166

$$$$
